Reference for the values: ChEMBL document CHEMBL5104113

# target under test: Catenin beta-1 (Homo sapiens)

compound	target under test	units of measure	Kd
CC(C)c1cc2c(c(O)c1O)[C@@]1(C(=O)O)CCCC(C)(C)[C@@H]1CC2 [CARNOSIC ACID]	Catenin beta-1 (Homo sapiens)	µM	20

###

# target under test: Catenin beta-1 (Homo sapiens)
# protocol: Inhibition of beta catenin in HEK293 cells by TOPflash luciferase reporter assay

molecule	IC50 [µM]
CCc1cccc2c3c([nH]c12)[C@@](CC)(CC(=O)O)OCC3 [SDX-101]	683

###

# target under test: Poly(ADP-ribose) glycohydrolase (Homo sapiens, UniProt Q86W56)
# Sequence (Q86W56 whole entry): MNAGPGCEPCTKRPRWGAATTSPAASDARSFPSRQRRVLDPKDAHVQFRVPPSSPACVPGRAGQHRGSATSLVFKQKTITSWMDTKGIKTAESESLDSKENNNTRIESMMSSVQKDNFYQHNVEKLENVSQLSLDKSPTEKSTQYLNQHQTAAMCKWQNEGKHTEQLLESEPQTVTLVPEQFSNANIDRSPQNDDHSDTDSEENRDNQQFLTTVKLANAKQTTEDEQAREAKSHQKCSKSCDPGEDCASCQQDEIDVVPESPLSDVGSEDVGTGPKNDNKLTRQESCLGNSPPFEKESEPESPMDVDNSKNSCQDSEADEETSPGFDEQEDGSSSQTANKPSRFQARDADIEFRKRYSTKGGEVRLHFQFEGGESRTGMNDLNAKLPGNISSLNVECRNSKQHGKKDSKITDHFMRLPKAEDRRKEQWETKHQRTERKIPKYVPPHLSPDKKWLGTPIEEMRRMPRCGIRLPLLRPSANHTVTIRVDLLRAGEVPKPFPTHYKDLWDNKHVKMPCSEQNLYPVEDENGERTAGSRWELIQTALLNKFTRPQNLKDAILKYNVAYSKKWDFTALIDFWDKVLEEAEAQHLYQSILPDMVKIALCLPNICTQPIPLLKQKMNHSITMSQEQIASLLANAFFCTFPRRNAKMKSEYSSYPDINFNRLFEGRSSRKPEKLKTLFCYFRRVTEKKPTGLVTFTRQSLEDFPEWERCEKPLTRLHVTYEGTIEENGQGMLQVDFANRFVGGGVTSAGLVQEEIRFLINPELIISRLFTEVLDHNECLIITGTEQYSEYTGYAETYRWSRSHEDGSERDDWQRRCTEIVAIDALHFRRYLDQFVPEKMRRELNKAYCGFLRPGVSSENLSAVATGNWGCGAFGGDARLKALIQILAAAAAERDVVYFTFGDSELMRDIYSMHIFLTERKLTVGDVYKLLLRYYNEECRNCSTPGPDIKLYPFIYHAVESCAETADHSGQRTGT
# protocol: Binding affinity to human PARG assessed as dissociation constant by SPR analysis
pKd: −log10 of the molar value.
parameter measured: pKd

1. CC(C)(C)NS(=O)(=O)c1ccc2c(c1)C(=O)c1ccccc1C2=O 8.84

###

# target under test: UniProtKB P35222
# condition label: dose 125.0 µM
# Description: Thermal stabilization of wildtype beta catenin ARD (148 to 662 residues) (unknown origin) assessed as change in melting temperature at 125 uM by DSF method
parameter measured: ΔTm (°C)

compound	target under test	parameter measured	units of measure	observed value
O=C(O)c1ccccc1-c1c2ccc(=O)cc-2oc2cc(O)ccc12	UniProtKB P35222	ΔTm	°C	0.1
O=C(O)c1ccccc1Oc1ccccc1	UniProtKB P35222	ΔTm	°C	-0.1
CC(C)c1cc2c(c(O)c1O)[C@@]1(C(=O)O)CCCC(C)(C)[C@@H]1CC2 [CARNOSIC ACID]	UniProtKB P35222	ΔTm	°C	-2.7
Cc1ccc2nc(N(C)C)nc(NCc3ccc(C(=O)NCc4ccc(F)cc4)cc3)c2c1	UniProtKB P35222	ΔTm	°C	-0.7
O=C(CN1C2=NCCN2c2ccccc21)c1ccc(-c2ccccc2)cc1	UniProtKB P35222	ΔTm	°C	-0.1
Cc1cc(Cl)ccc1/N=C\c1ccc(F)c(Oc2ccccc2)c1	UniProtKB P35222	ΔTm	°C	0.1
CN(C)CCOc1nc2ccccc2nc1C#Cc1ccccc1	UniProtKB P35222	ΔTm	°C	0
O=C(Nc1ccc(O[C@H]2CCNC2)c(-c2ccc(F)cc2)c1)c1ccc(O[C@@H]2CCNC2)c(-c2ccc(F)c(F)c2)c1	UniProtKB P35222	ΔTm	°C	-0.5
COc1cccc(/C=C2/SC(=S)N(CCC(=O)O)C2=O)c1OC	UniProtKB P35222	ΔTm	°C	-0.5
Cc1ccc(/C=N/NC(=O)c2ccccc2Oc2ccccc2)o1	UniProtKB P35222	ΔTm	°C	-0.5
COC(=O)c1cccc(NS(=O)(=O)c2ccc(C)cc2)c1	UniProtKB P35222	ΔTm	°C	-0.5
CCc1ccc(-c2nc(CSCC(=O)NCCc3ccccc3)c(C)o2)cc1	UniProtKB P35222	ΔTm	°C	-0.7
CN(C)c1ccc(-c2nc3cc(F)ccc3[nH]2)cc1	UniProtKB P35222	ΔTm	°C	-0.1

###

# protocol: Inhibition of Wnt/beta-catenin (unknown origin) transcriptional activity pathway transfected human H1299 cells by measuring luciferase activity after 24 hrs by TOP-flash luciferase reporter gene assay
# Format: cell-based
# condition label: nci-h1299
pIC50: −log10 of the molar value.
parameter measured: pIC50

1. O=C1C(Cl)=C(Nc2ccc(S(=O)(=O)Nc3ccccn3)cc2)C(=O)c2ccccc21 5.64

###

Target protein (sequence): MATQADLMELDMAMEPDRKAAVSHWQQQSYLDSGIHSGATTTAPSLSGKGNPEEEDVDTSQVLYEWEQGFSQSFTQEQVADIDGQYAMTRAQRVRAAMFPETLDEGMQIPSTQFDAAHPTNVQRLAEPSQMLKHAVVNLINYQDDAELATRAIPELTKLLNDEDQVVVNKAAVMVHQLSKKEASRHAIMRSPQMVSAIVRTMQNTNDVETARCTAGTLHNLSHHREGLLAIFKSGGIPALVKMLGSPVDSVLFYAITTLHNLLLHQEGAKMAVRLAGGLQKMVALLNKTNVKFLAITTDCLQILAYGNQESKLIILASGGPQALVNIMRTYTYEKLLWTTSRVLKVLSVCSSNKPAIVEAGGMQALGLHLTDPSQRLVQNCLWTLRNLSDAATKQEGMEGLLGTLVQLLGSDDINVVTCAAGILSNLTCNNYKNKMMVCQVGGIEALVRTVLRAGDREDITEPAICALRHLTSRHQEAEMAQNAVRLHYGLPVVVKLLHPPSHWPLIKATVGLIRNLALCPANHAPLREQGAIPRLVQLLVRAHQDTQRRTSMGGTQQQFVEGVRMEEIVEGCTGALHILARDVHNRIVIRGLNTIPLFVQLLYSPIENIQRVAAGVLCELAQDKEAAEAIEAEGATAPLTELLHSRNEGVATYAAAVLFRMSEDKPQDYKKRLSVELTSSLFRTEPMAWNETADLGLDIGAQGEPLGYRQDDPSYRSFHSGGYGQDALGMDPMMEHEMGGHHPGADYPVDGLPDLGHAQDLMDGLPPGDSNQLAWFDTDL
parameter measured: Ki (µM)

1) On1ncc2cc(CCc3nn[nH]n3)ccc21 3
